ASSAY_SUMMARY: IN Cell qHTS Assay for Inhibitors of the mTORC1 Signaling Pathway in MEF (Tsc2-/-, p53-/-) Cells: Sytravon; also: nearly all actives have a fitted effect of over 60% in size
CONDITION_SUMMARY: phospho-rpS6 immunofluorescence, 24 h; series mostly up to 38.3 µM
Hit rate of the full screen: of about 2,100 compounds, about 210 (10%) were called active. Not shown: some 53% with an inconclusive outcome. Calls follow the shape of the dose curve; as a rule, active = well fitted inhibition curve with a large enough effect; inconclusive = small, poorly fitted or top-dose-only effect, or effect the other way; inactive = no such curve, though single readings can be large or run the other way. The list shows a part of the results.
Select the correct class. Options are t (active), f (inactive) and nothing else.

# example entries with known answers
# COMPOUND, LABEL_CLASS
records = [
    ("CC(C)CN(CC(C)C)c1nnc(NC(=O)Nc2cccc(C(F)(F)F)c2)s1", "f"),
    ("CCOc1ccc(S(=O)(=O)N(C(=O)c2ccncc2)c2ccc3oc(C)c(C(=O)OC)c3c2)cc1", "t"),
    ("COc1ccc(OC)c2sc(N(CCCN(C)C)C(=O)c3ccco3)nc12", "t"),
    ("CC1CCN(S(=O)(=O)c2ccc3nc(Nc4cccc(C(F)(F)F)c4)ccc3c2)CC1", "f"),
]

What call does the record list for COc1ccccc1N1CCN(S(=O)(=O)c2ccc(-n3cnnn3)cc2)CC1 ?
f

What call does the record list for CCN(CC)CCn1c(=N)n(CC(O)COc2ccccc2C)c2ccccc21 (stereo unspecified) ?
t

What call does the record list for CCOC(=O)C1CCCN(C(=O)Cn2c(=O)cc(C)c3c(C)nn(C)c32)C1 (stereo unspecified) ?
f

What call does the record list for Cc1nc2scc(C)n2c(=O)c1S(=O)(=O)Nc1ccc(N2CCN(S(C)(=O)=O)CC2)cc1 ?
f

* * *

ASSAY_SUMMARY: IN Cell qHTS Assay for Inhibitors of the mTORC1 Signaling Pathway in MEF (Tsc2-/-, p53-/-) Cells: Sytravon; also: nearly all actives have a fitted effect of over 60% in size; also: potency is read from the fitted curve at half-maximal effect
CONDITION_SUMMARY: phospho-rpS6 immunofluorescence, 24 h; series mostly up to 38.3 µM
The campaign covered roughly 2,100 compounds. About 210 (10%) were called active. Inconclusive results (about 53%) are left out. This is one part of the list.
MEASURE_NAME: Potency

# count of solved cases: 5
# MOLECULE, Potency
rows = [
    ("CCCc1ccc(C2Sc3ccccc3NC3=C2C(=O)c2ccccc23)cc1 (configuration not stated)", "inactive"),
    ("O=C(NCC1CCN(Cc2cccc(Cl)c2)CC1)Nc1ccc(F)c(Cl)c1", "inactive"),
    ("CCOc1ccc(CN2C(=O)c3ccccc3Sc3ccc(C(=O)O)cc32)cc1", "inactive"),
    ("O=C(CSc1nccn1-c1ccc(Cl)cc1)Nc1ccc(Cl)c(Cl)c1", "inactive"),
    ("COc1ccccc1CNC(=O)CCc1c(C)c2ccc(OC)c(C)c2oc1=O", "1.47 µM (active)"),
]

// next item, Potency requested
Query: Potency; subject: COc1ccc(-c2nc3cc(C(C)C)ccc3o2)cc1NC(=O)c1ccccc1[N+](=O)[O-]
inactive

* * *

ASSAY_SUMMARY: IN Cell qHTS Assay for Inhibitors of the mTORC1 Signaling Pathway in MEF (Tsc2-/-, p53-/-) Cells: Sytravon; also: nearly all actives have a fitted effect of over 60% in size
CONDITION_SUMMARY: phospho-rpS6 immunofluorescence, 24 h; series mostly up to 38.3 µM
The campaign covered roughly 2,100 compounds. About 210 (10%) were called active. Not shown: some 53% with an inconclusive outcome. The call rests on the fitted dose curve; in most records, active means well fitted inhibition curve with a large enough effect; inconclusive means small, poorly fitted or top-dose-only effect, or effect the other way; inactive means no such curve, though single readings can be large or run the other way. This is one part of the list.
Select the correct class. Options are yes for active, no for inactive and nothing else.

# COMPOUND, LABEL_CLASS
rows = [
    ("CCCCOC(=O)c1ccc(NC(=O)Cc2coc3ccc(C(C)C)cc23)cc1", "no"),
]

What call does the record list for COc1ccc(NC(=O)CSc2nc(-c3ccco3)cc(C(F)(F)F)n2)cc1Cl ?
no

What call does the record list for CCOC(=O)c1nc(Nc2ccc(C(=O)OC(C)C)cc2)c2ccccc2n1 ?
no

* * *

ASSAY_SUMMARY: IN Cell qHTS Assay for Inhibitors of the mTORC1 Signaling Pathway in MEF (Tsc2-/-, p53-/-) Cells: Sytravon; also: nearly all actives have a fitted effect of over 60% in size
CONDITION_SUMMARY: phospho-rpS6 immunofluorescence, 24 h; series mostly up to 38.3 µM
Out of some 2,100 compounds screened, about 210 (10%) were called active. Another 53% or so got no clear call; they are omitted. The call rests on the fitted dose curve; in most records, active means well fitted inhibition curve with a large enough effect; inconclusive means small, poorly fitted or top-dose-only effect, or effect the other way; inactive means no such curve, though single readings can be large or run the other way. Some of the results follow.
Select the correct class. Options are active, inactive and nothing else.

# example entries with known answers
# COMPOUND, LABEL_CLASS
records = [
    ("COc1ccc(NC(=O)CN2C(=O)C(=O)c3ccccc32)c(OC)c1", "inactive"),
    ("CC1CCCCN1CC(=O)N1CCCc2c1c(=O)oc1ccc(OCc3ccccc3)cc21 (stereo not given)", "active"),
    ("CCCCN(C)CCCNC(=O)C1CCN(c2nc3ccc(CC)cc3s2)CC1", "active"),
]

What call does the record list for Cc1cc(C)c(NC(=O)Cn2c(=O)n(CCC(=O)NCc3ccc4c(c3)OCO4)c(=O)c3ccccc32)c(C)c1 ?
inactive

What call does the record list for Cc1ccccc1S(=O)Cc1ccc(C(=O)N2CCN(c3cccc(C)c3C)CC2)o1 (stereo not given) ?
active

What call does the record list for COc1ccc(NC(=O)Cn2c(=O)n(CCCC(=O)NCc3ccccc3OC)c(=O)c3ccccc32)cc1Cl ?
inactive

What call does the record list for CCN(Cc1ccccc1)Cc1c(O)ccc2oc(C)c(C(=O)Nc3ccc(C)cc3C)c12 ?
inactive

What call does the record list for COc1ccc(CNC(=O)c2cc(-c3ccc(OC)c(OC)c3)nc3n[nH]c(-c4ccc(C)cc4)c23)cc1 ?
active

What call does the record list for Cc1cc(C)cc(NC(=O)C2CCCN2S(=O)(=O)c2ccc3nc(-c4ccccc4)[nH]c3c2)c1 (stereo not given) ?
inactive

* * *

ASSAY_SUMMARY: IN Cell qHTS Assay for Inhibitors of the mTORC1 Signaling Pathway in MEF (Tsc2-/-, p53-/-) Cells: Sytravon; also: nearly all actives have a fitted effect of over 60% in size
CONDITION_SUMMARY: phospho-rpS6 immunofluorescence, 24 h; series mostly up to 38.3 µM
From the text: NIH Molecular Libraries Probe Production Centers Network [MLPCN] NIH Chemical Genomics Center [NCGC] […] NCGC IN Cell Assay Protocol: For quantitative high throughput analysis of mTORC1 signaling, we developed a cell-based assay for immuno-fluorescence based detection of rpS6 phosphorylation on the Acumen Explorer that will be used a platform for the primary small molecule screen. […]
The whole screen tested about 2,100 compounds, of which about 210 (10%) were called active. About 53% were inconclusive and are not listed. The call rests on the fitted dose curve; in most records, active means well fitted inhibition curve with a large enough effect; inconclusive means small, poorly fitted or top-dose-only effect, or effect the other way; inactive means no such curve, though single readings can be large or run the other way. The list shows a part of the results.
Select the correct class. Options are active, inactive and nothing else.

# example entries with known answers
# COMPOUND, LABEL_CLASS
rows = [
    ("CCCOc1ccc(Oc2nc(NCC(C)C)nc(N(C)C)n2)nn1", "inactive"),
    ("Cc1ccc(N2CC(C(=O)NCCS(=O)(=O)N3CCN(c4ccccc4F)CC3)CC2=O)cc1 (stereo unspecified)", "inactive"),
    ("O=C(NCCCN1CCN(c2ccccc2F)CC1)c1nnc(Cc2ccc(Cl)cc2Cl)o1", "inactive"),
]

What call does the record list for Cc1cccc(Nc2nc(Nc3cccc(C)c3)nc(N3CCOCC3)n2)c1 ?
active

What call does the record list for CSc1ncc(Cl)c(C(=O)N(C)c2ccccc2)n1 ?
inactive

What call does the record list for Cc1scc(CN2CCN(c3ccccc3F)CC2)c1C ?
inactive

What call does the record list for O=c1c2ccccc2n(Cc2cccc(F)c2)c(=O)n1Cc1ccccc1Cl ?
inactive

What call does the record list for CCOC(=O)c1c(C)oc2ncnc(Nc3cc(Cl)ccc3OC)c12 ?
inactive

What call does the record list for COc1ccc(-n2nnc(-c3nsc(NC(=O)c4ccc(C)c(C)c4)n3)c2C)cc1Cl ?
inactive

What call does the record list for COc1ccccc1Oc1nc2c(C)cccn2c(=O)c1/C=C(\C#N)c1nc2ccccc2[nH]1 ?
inactive

What call does the record list for CCOc1ccc(-c2nonc2NC(=O)c2oc3ccc(CC)cc3c2C)cc1 ?
inactive

* * *

ASSAY_SUMMARY: IN Cell qHTS Assay for Inhibitors of the mTORC1 Signaling Pathway in MEF (Tsc2-/-, p53-/-) Cells: Sytravon; also: nearly all actives have a fitted effect of over 60% in size
CONDITION_SUMMARY: phospho-rpS6 immunofluorescence, 24 h; series mostly up to 38.3 µM
In all, about 2,100 compounds went through this assay and about 210 (10%) were called active. About 53% were inconclusive and are not listed. Calls come from the whole dose curve; as a rule, active = well fitted inhibition curve with a large enough effect; inconclusive = small, poorly fitted or top-dose-only effect, or effect the other way; inactive = no such curve, though single readings can be large or run the other way. The list shows a part of the results.
Select the correct class. Options are active, inactive and nothing else.

# example entries with known answers
# COMPOUND, LABEL_CLASS
data = [
    ("Nc1c(C(=O)c2ccc(F)cc2)sc(Nc2ccccc2F)c1S(=O)(=O)c1ccc(Br)cc1", "inactive"),
    ("Cc1ccccc1OCc1cc(=O)n2c(-c3ccccc3)csc2n1", "inactive"),
    ("Cc1ccc(C)c(NC(=O)CSc2cn(CC(=O)N3CCCC3)c3ccccc23)c1", "inactive"),
]

What call does the record list for CCCC(=O)C1=C(c2ccc(C)cc2)N(C(=O)CCC)n2cnnc2S1 ?
inactive

What call does the record list for Cc1ccc(-c2nc(S(=O)(=O)c3ccc(C)cc3)c(N3CCN(c4ccccc4)CC3)o2)cc1 ?
inactive

What call does the record list for COc1ccc(-c2nc(S(=O)(=O)c3ccc(C)cc3)c(N3CCCCC3)o2)cc1 ?
active

What call does the record list for O=S(=O)(c1ccccc1)c1nc(-c2cccc(Cl)c2)oc1N1CCOCC1 ?
active

What call does the record list for CC(CNC(=O)c1ccc2nc(CCc3ccccc3)oc2c1)c1ccccc1 (stereo not given) ?
inactive

What call does the record list for COc1ccc(N2CCN(Cc3nc(-c4ccc(C)cc4)no3)CC2)cc1 ?
inactive

What call does the record list for O=C(Nc1ccc(Br)cc1)c1cc(S(=O)(=O)N2CCc3ccccc32)ccc1F ?
inactive
